// data source = patent US20240376198A1

biological target: T1, cynomolgus NKp46 (cynomolgus monkey, UniProt Q95JB9 22-306); test: flow cytometry, HEK293F cells transfected with cyno NKp46
T1 construct: also called cyno NKp46; cynomolgus monkey NKp46
T1 sequence (Q95JB9 22-306 limits assumed): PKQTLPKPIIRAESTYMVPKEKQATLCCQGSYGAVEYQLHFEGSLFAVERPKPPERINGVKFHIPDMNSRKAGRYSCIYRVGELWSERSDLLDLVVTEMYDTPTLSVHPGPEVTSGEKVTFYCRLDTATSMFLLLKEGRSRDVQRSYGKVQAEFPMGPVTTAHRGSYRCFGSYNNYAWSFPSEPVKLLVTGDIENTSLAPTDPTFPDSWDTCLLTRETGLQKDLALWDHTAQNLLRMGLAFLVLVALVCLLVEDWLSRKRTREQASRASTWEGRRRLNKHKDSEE
Provide the reported Bmax (MFI) of each item.
Report as a plain number; the unit MFI is understood.

// lookup Bmax (MFI) for NKp46-hz5D7v3-Fc* (Fc fusion, VHH-Fc fusion with an IgG1 Fc lacking a hinge (Fc*); also called NKp46-bz5D7v3-Fc*) EVQLVESGGGEVQPGGSLRLSCAASGRTFASAAMGWFRQAPGKEREFVAAISRSDDTYYAESVKGRFTISRDNAKNTVYLQMSSLRAEDTAVYYCAAVVPTYGNNIYVHSAAYNYWGQGTLVTVKPGGGGPSVFLFPPKPKDTLMISRTPEVTCVVVDVSHEDPEVKFNWYVDGVEVHNAKTKPREEQYNSTYRVVSVLTVLHQDWLNGKEYKCKVSNKALPAPIEKTISKAKGQPREPQVYTLPPSRDELTKNQVSLTCLVKGFYPSDIAVEWESNGQPENNYKTTPPVLDSDGSFFLYSKLTVDKSRWQQGNVFSCSVMHEALHNHYTQKSLSLSPG
19800

Follow-up entry: NKp46-hz5D7v15-Fc* (Fc fusion, VHH-Fc fusion with an IgG1 Fc lacking a hinge (Fc*)) EVQLVESGGGEVQPGGSLRLSCAASGRTFASAAMGWFRQAPGKEREFVAAISRSDDTYYAESVKGRFTISRDNAKNTVYLQMSSLRAEDTAVYYCAAVVPTYGNAIYVHSAAYNYWGQGTLVTVKPGGGGPSVFLFPPKPKDTLMISRTPEVTCVVVDVSHEDPEVKFNWYVDGVEVHNAKTKPREEQYNSTYRVVSVLTVLHQDWLNGKEYKCKVSNKALPAPIEKTISKAKGQPREPQVYTLPPSRDELTKNQVSLTCLVKGFYPSDIAVEWESNGQPENNYKTTPPVLDSDGSFFLYSKLTVDKSRWQQGNVFSCSVMHEALHNHYTQKSLSLSPG
16400
